Below, each entry is listed alongside its reported pIC50.
Biological target: human recombinant HDAC1 (Homo sapiens)
Sequence (Q13547 whole entry): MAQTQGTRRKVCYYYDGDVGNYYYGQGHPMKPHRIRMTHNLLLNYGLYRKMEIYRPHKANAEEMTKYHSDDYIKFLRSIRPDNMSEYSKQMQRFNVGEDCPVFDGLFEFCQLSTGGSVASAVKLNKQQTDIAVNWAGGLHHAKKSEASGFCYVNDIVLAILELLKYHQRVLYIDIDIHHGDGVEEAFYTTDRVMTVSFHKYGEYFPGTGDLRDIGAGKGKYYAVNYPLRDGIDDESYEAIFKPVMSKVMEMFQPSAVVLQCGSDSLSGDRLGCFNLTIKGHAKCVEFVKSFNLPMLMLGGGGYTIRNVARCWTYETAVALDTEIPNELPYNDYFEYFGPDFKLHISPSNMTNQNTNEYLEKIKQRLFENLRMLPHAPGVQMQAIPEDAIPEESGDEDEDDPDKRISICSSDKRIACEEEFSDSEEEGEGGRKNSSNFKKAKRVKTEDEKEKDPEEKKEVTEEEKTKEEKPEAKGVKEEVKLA
Experiment: HDAC1 enzyme activity inhibition assay (HDAC Fluorimetric Drug Discovery Kit)
Conditions: 0.3 μg enzyme, 10 μM substrate, 30° C., 60 minutes
pIC50: −log10 of the molar value.
propertyLabel: pIC50

compoundStructureString | propertyLabel | reading
CS(=O)(=O)N(Cc1ccc(-c2nnc(C(F)(F)F)o2)nc1)c1ccccc1 | pIC50 | 4.54
Cc1cccc(N(Cc2ccc(-c3nnc(C(F)F)o3)cn2)S(=O)(=O)C2CCN([C@H]3CC[C@H](F)CC3)CC2)c1 | pIC50 | 4.69
O=C(CO)N1CC(N2CCC(S(=O)(=O)N(Cc3ccc(-c4nnc(C(F)F)o4)cc3F)c3ccc(F)c(Cl)c3)CC2)C1 | pIC50 | 4.56
CS(=O)(=O)N(Cc1ccc(-c2nnc(C(F)(F)F)o2)cc1F)c1ccccc1 | pIC50 | 4.39
Cc1cccc(N(Cc2ccc(-c3nnc(C(F)F)o3)cn2)S(=O)(=O)C2CCN([C@H]3CC[C@@H](C(F)(F)F)CC3)CC2)c1 | pIC50 | 4.47
CCS(=O)(=O)N(Cc1ccc(-c2nnc(C(F)F)o2)cn1)c1ccc(C)c(F)c1 | pIC50 | 4.56
Cc1cccc(N(Cc2ccc(-c3nnc(C(F)(F)F)o3)cc2F)S(C)(=O)=O)c1 | pIC50 | 4.72
